Ref: PubChem BioAssay (NCI)

- Tested on: MDA-MB-435 melanoma
- method summary: NCI-60 one-dose screen, 48 h
- settings: 10 µM unless noted
- Description: Growth inhibition of the MDA-MB-435 human Melanoma tumor cell line is measured as a screen for anti-cancer activity. Cells are grown in 96 well plates and exposed to the test compound for 48 hours. Compounds are tested at a single concentration, which is 10^-5 M for most compounds. The reported endpoint is percent growth (GI% or GIPRCNT), where numbers from 0 - 100% represent growth inhibition, and numbers from -100% - 0 represent cell death. […]
About 83,000 compounds went through this panel and 20% of them were active in at least one assay; those are over-represented in the sample as a whole. Activity calls are given as the source filed them. Rule for the calls: active = growth percent below 10; inactive = the rest.
Mark one answer only. Choices: active, inactive

Would you please look over these solved cases?
INSERT INTO measurements (molecule, class) VALUES
  ('N/C(=N\C(N)=N\c1nc2ccccc2s1)c1cccc(Br)c1', 'inactive'),
  ('CN(CCCCCl)P(=O)(OCc1ccc([N+](=O)[O-])o1)C(F)(F)C[C@H](NC(=O)CNC(=O)c1ccc(N=[N+]=[N-])cc1)C(=O)NCCc1ccc(O)cc1 (stereo not given in full)', 'inactive'),
  ('COc1cc(-c2ncn(/C=C\C(=O)OC(C)C)n2)cc(C(F)(F)F)c1', 'active'),
  ('CC(C)C(C(=O)NCCN1CCOCC1)N1C(=O)/C(=C/c2ccc(Br)cc2)SC1=S (stereo not given)', 'inactive'),
  ('COc1ccc(C(=O)N2NC(=O)/C(=C/c3cn(-c4ccccc4)nc3-c3ccccc3)N=C2c2ccccc2)cc1', 'inactive'),
  ('CN1CCN(Cc2ccc(NC(=O)c3nc4ccc5[nH]ncc5c4c4c3CCC4)cc2C(F)(F)F)CC1', 'active'),
  ('C=C1C(=O)O[C@H]2[C@H]1CC/C(COC(=O)NCc1ccccc1OC)=C\CC[C@@]1(C)O[C@@H]21', 'inactive'),
  ('O=C(/C=C/c1c[nH]c2ccccc12)c1ccc(O)c(CN2CCN(c3ccc(F)cc3)CC2)c1', 'inactive');

Dear all, I need the recorded test outcome for `COc1ccc(-c2nc3sc(-c4cc(OC)c(OC)c(OC)c4)nn3c2/C=C2/C(=O)Nc3ccc(F)cc32)cc1` , thank you.
active

Dear all, I need the recorded test outcome for `CC(C)(C)n1cc(-c2ccnc(NCCNS(=O)(=O)c3ccc(F)cc3)c2)c(-c2cccc(O)c2)n1` , thank you.
inactive

Dear all, I need the recorded test outcome for `CCc1ccc(-c2ccc(=O)n(-c3ccc(S(N)(=O)=O)cc3)n2)cc1` , thank you.
active

Dear all, I need the recorded test outcome for `COC1=C(OC)C(=O)C(CCCCCCCCCC[P+](c2ccccc2)(c2ccccc2)c2ccccc2)=C(C)C1=O` , thank you.
active

====

- System: MALME-3M melanoma
- method summary: NCI-60 one-dose screen, 48 h
- settings: 10 µM unless noted
This is part of a sample that, as a whole, favours compounds with a hit. Of some 83,000 tested, about 20% had one in any assay. Calls of active or inactive are those of the source. Rule for the calls: active = growth percent below 10; inactive = the rest.
Mark one answer only. Choices: label 1 for active, label 0 for inactive

INSERT INTO assay_data (molecule, class) VALUES
  ('CCCCCCCCCCCCCCCCNC(=O)OC(C)C', 'label 0');

Dear all, I need the recorded test outcome for `COc1ccc(C(=O)N2NC(=O)/C(=C/c3cn(-c4ccccc4)nc3-c3ccccc3)N=C2c2ccccc2)cc1` , thank you.
label 0

====

- Test system: CCRF-CEM leukemia
- method summary: NCI-60 one-dose screen, 48 h (100 = growth as untreated, 0 = no growth, -100 = all killed)
- settings: 10 µM unless noted
Compounds without any hit were thinned out: in the full panel of roughly 83,000, 20% have a hit. Activity calls are given as the source filed them. The calls were made as follows: active = growth percent below 10; inactive = the rest.
measured parameter: growth

Examples with their reported growth follow.
INSERT INTO results (molecule, measured) VALUES
  ('CCCCCCCCCCCCCCCCCCNC(=O)[C@H]1CSC(c2ccc(OC)cc2O)N1 (stereo partly specified)', '6.93% (active)'),
  ('C=C1C(=O)O[C@H]2[C@H]1CC/C(Cn1cc(CNC(=O)Cc3cn(C(=O)c4ccc(Cl)cc4)c4ccc(OC)cc34)nn1)=C\CC[C@@]1(C)O[C@@H]21', '-34% (active)'),
  ('O=C1C(Cl)=C(Nc2ccccn2)C(=O)c2ccccc21', '56.4% (inactive)');

Batch request: growth for each of the following molecules.
1. CC(C)(C)n1cc(-c2ccnc(NCCCNS(=O)(=O)c3ccccc3)c2)c(-c2cccc(O)c2)n1
2. COc1ccc(NC(=O)c2c(Nc3ccc(OC)cc3OC)n[nH]c2N)c(OC)c1
3. CCn1c2ccccc2c2cc(NC(=O)Nc3ccc([N+](=O)[O-])cc3C)ccc21
4. COc1cc2c(c(OC)c1OC)-c1ccc(N)c(=O)cc1[C@@H](NC(C)=O)CC2
5. COc1ccc(N2CCN(Cc3cc(C(=O)/C=C/c4c[nH]c5ccccc45)ccc3O)CC2)cc1

35.1% (inactive)
110% (inactive)
9.61% (active)
21.6% (inactive)
95.8% (inactive)

Batch request: growth for each of the following molecules.
1. Cc1ccc(S(=O)(=O)/C(=C\c2ccc(Cl)cc2)C(=O)c2ccccc2)cc1
2. CN(C)c1cccc2c(S(=O)(=O)/N=C(\N)Nc3nc4ccccc4s3)cccc12
3. O=C1/C(=C/c2ccccc2)Oc2ccc(O)c(I)c21

["97.7% (inactive)", "69.1% (inactive)", "94.7% (inactive)"]

Batch request: growth for each of the following molecules.
1. O=C(C1=Cc2cc3ccccc3n2Cc2cnnn21)c1ccccc1
2. CC(C)(C)Nc1c(-c2cccs2)nc2ncccn12
3. O=C1/C(=C/c2ccc(Cl)cc2)CN(C(=O)CCN2CCC(=NO)CC2)C/C1=C\c1ccc(Cl)cc1
4. Nc1cccc(Cl)c1N
5. O=c1ccn(C2CC(O)C(O)C(CO)O2)c(=O)[nH]1 (stereo unspecified)
6. C=C1c2nc3ccccc3n2C=C(c2ccc(Cl)cc2)N1Cc1ccccc1
7. C=C[C@@H]1C[C@@H]2Cc3ccccc3N1O2
8. N#Cc1c(-c2ccccc2)nc(SCC(=O)N2CCN(c3ccccc3)CC2)[nH]c1=O

["53% (inactive)", "89.9% (inactive)", "-23.3% (active)", "71% (inactive)", "7.45% (active)", "78.9% (inactive)", "-50% (active)", "100% (inactive)"]

Batch request: growth for each of the following molecules.
1. Clc1cccc(-c2cc(-c3ccc4c(c3)OCCO4)[nH]n2)c1
2. O=C(Nc1cccc(-n2cc(-c3ccncc3)c(-c3ccc(Cl)c(O)c3)n2)c1)Nc1ccc(Cl)c(Cl)c1

1: 17.9% [25 µM] (inactive); 2: 13.7% (inactive)

====

- Test system: 786-0 renal
- method summary: NCI-60 one-dose screen, 48 h
- settings: 10 µM unless noted
About 83,000 compounds went through this panel and 20% of them were active in at least one assay; those are over-represented in the sample as a whole. Active and inactive are the calls of the source. The calls were made as follows: active = growth percent below 10; inactive = the rest.
Mark one answer only. Choices: active, inactive

INSERT INTO measurements (smiles_text, class) VALUES
  ('N=c1ccc2nc3ccc(N)cc3sc-2c1', 'inactive'),
  ('N/C(=N\S(=O)(=O)c1ccccc1)Nc1nc2ccccc2s1', 'inactive'),
  ('COc1cccc(CC(C)=C(c2ccc(OCCN3CCCCC3)cc2)c2ccc(OCCN3CCCCC3)cc2)c1', 'active');

Dear all, I need the recorded test outcome for `COc1ccc(CN2CCc3c(Sc4ccccc4)nc(N)nc3C2=O)c(OC)c1` , thank you.
inactive

Dear all, I need the recorded test outcome for `C=C[C@@H]1C[C@H](O)Cc2ccccc2N1` , thank you.
inactive

====

Assign growth to each entry below.
- Tested on: PC-3 prostate
- method summary: NCI-60 one-dose screen, 48 h (100 = growth as untreated, 0 = no growth, -100 = all killed)
- settings: 10 µM unless noted
About 83,000 compounds went through this panel and 20% of them were active in at least one assay; those are over-represented in the sample as a whole.
Answers are plain numbers, in %.

Examples with their reported growth follow.
INSERT INTO measurements (compound, measurement_target, measured) VALUES
  ('O=C(/C=C/c1cc(-c2ccc3c(c2)OCO3)n[nH]1)c1ccc2c(c1)OCO2', 'PC-3 prostate', 74.6),
  ('C=C(C)[C@@H]1C[C@@H]2Cc3cc(Cl)ccc3N1O2', 'PC-3 prostate', 96.5);

Please report the recorded growth for COC(=O)C(Sc1ccc(Cl)cc1)C1SC(=S)N(Cc2ccccc2)C1=O (stereo not drawn) .
97.4

====

- Test system: RXF 393 renal
- method summary: NCI-60 one-dose screen, 48 h (100 = growth as untreated, 0 = no growth, -100 = all killed)
- settings: 10 µM unless noted
This is part of a sample that, as a whole, favours compounds with a hit. Of some 83,000 tested, about 20% had one in any assay.
Assign growth to each entry below.
One number for each entry, in %.

Examples with their reported growth follow.
INSERT INTO assay_data (compound, measured_parameter, measured) VALUES
  ('CN(C)CC(C(=O)c1ccccc1)c1ccccc1 (centres undefined)', 'growth', 54.8),
  ('C=C[C@@H]1C[C@H](O)Cc2c(C)cc(C)cc2N1', 'growth', 108),
  ('Nc1cccc(-c2nc3sccn3c2-c2ccnc(NCCCNS(=O)(=O)c3cccc4ccccc34)n2)c1', 'growth', 57.4),
  ('CCCCNC(=O)Oc1ccc(/C(=C(\C)c2ccccc2)c2ccc(OCCN(CC)CC)cc2)cc1', 'growth', 52.8),
  ('O=C1/C(=C/c2ccc(Cl)cc2)CN(C(=O)CCN2CCC(=NO)CC2)C/C1=C\c1ccc(Cl)cc1', 'growth', -91.3),
  ('Nc1cc2c(cc1C(=O)c1cccc(F)c1)OCCO2', 'growth', 104),
  ('CN1C(=O)N(C)C2C1NN=c1s/c(=C\c3cccnc3)c(=O)n12 (centres undefined)', 'growth', 92.4),
  ('c1ccc(-c2nnc(-c3ccccn3)s2)nc1', 'growth', 109);

Batch request: growth for each of the following compounds.
1. CCCN=C1NC(=O)/C(=C/c2nc(-c3ccc(OC)cc3)n3ccccc23)S1
2. C=C1CC2(OC1=O)C(=O)N(CCCN1C(=O)C3(CC(=C)C(=O)O3)c3ccccc31)c1ccccc12 (centres undefined)
3. CCCCCCCCCCCCNC(=O)[C@H]1CSC(c2cc(Br)cs2)N1 (some centres undefined)
4. OCc1ncc(-c2ccccc2)s1
5. CCOC(=O)c1cc(C(=O)c2cc(OC)c(OC)c(OC)c2)n2c1ccc1ccccc12
6. COc1ccc(NC(=O)CSc2nc(-c3ccc(OC)c(OC)c3)cc(-c3cc(OC)c(OC)c(OC)c3)n2)cc1
7. C=C[C@@H]1C[C@H](O)Cc2cc(F)ccc2N1
8. NC1=NC(SCc2ccccc2CCl)c2ncn(Cc3ccccc3CCl)c2N1 (centres undefined)

54.6
-61.1
-60
122
-9.46
101
106
-4.55
